target: FAAH (Homo sapiens (Human), UniProt O00519); assay: biochemical; conditions: read-out: FAAH (human) IC50
So I've got a bunch of compounds here, and I need their IC50 values.

Input line: FAAH (Homo sapiens (Human), UniProt O00519) / IC50 / CC(C)Oc1ccc(CN2CCN(C(=O)Oc3cncc(C(N)=O)c3)CC2)c(OC(F)(F)F)c1 : value?
Output line: 100 to 1000 nM

Input line: FAAH (Homo sapiens (Human), UniProt O00519) / IC50 / O=C(Oc1cncc(C(F)(F)F)c1)N1CCC2(CC1)CC(Oc1ccc(-c3ccccc3)cc1)C2 : value?
Output line: < 100 nM

Input line: FAAH (Homo sapiens (Human), UniProt O00519) / IC50 / C[C@@H]1CN(Cc2cc(Cl)cc(C(F)(F)F)c2)CCN1C(=O)Oc1cncc(C(N)=O)c1 : value?
Output line: 100 to 1000 nM

Input line: FAAH (Homo sapiens (Human), UniProt O00519) / IC50 / NC(=O)c1cncc(OC(=O)N2CCC3(CCN(Cc4cc(Cl)cc(C(F)(F)F)c4)C3)CC2)c1 : value?
Output line: < 100 nM

Input line: FAAH (Homo sapiens (Human), UniProt O00519) / IC50 / O=C(Oc1cncc(C(F)(F)F)c1)N1CCC2(CC1)CN(Cc1ccc(Oc3ccccc3Cl)cc1)C2 : value?
Output line: 100 to 1000 nM

Input line: FAAH (Homo sapiens (Human), UniProt O00519) / IC50 / O=C(Oc1cncc(C(F)(F)F)c1)N1CCC2(CC1)CC(Oc1cc(Cl)cc(Cl)c1)C2 : value?
Output line: 100 to 1000 nM

Input line: FAAH (Homo sapiens (Human), UniProt O00519) / IC50 / C[C@@H]1CN(Cc2cccc(Oc3ncccn3)c2)CCN1C(=O)Oc1cncc(C#N)c1 : value?
Output line: 100 to 1000 nM

Input line: FAAH (Homo sapiens (Human), UniProt O00519) / IC50 / O=C(Oc1cncc(C(F)(F)F)c1)N1CCC2(CC1)CN(Cc1cccc(Oc3nc4ccccc4s3)c1)C2 : value?
Output line: < 100 nM

* * *

So I've got a bunch of compounds here, and I need their pIC50 values.
molecular target: MAGL (Homo sapiens (Human)); assay: biochemical; settings: read-out: MAGL (human) IC50
pIC50: −log10 of the molar value.

Input line: I have this compound here, O=C(Oc1cncc(C(F)(F)F)c1)N1CCC2(CC1)CN(Cc1cccc(Oc3ccc(C(F)(F)F)nc3)c1)C2 [Example 39] , and I need its recorded pIC50.
Output line: 6.00 to 7.00

Input line: I have this compound here, O=C(Oc1cncc(C(F)(F)F)c1)N1CCC2(CC1)CC(Oc1ccc(-c3ccccc3)cc1)C2 [Example 28] , and I need its recorded pIC50.
Output line: > 7.00

Input line: I have this compound here, O=C(Oc1cncc(C(F)(F)F)c1)N1CCC2(CC1)CN(Cc1cccc(Oc3cccc(Cl)c3)c1)C2 [Example 10] , and I need its recorded pIC50.
Output line: > 7.00

Input line: I have this compound here, O=C(Oc1cncc(C(F)(F)F)c1)N1CCC2(CC1)CN(Cc1cccc(Oc3cncc(C(F)(F)F)c3)c1)C2 [Example 38] , and I need its recorded pIC50.
Output line: > 7.00

Input line: I have this compound here, O=C(Oc1cncc(C(F)(F)F)c1)N1CCC2(CC1)CN(Cc1ccc(Oc3cncnc3)cc1)C2 [Example 34] , and I need its recorded pIC50.
Output line: 6.00 to 7.00

Input line: I have this compound here, NC(=O)c1cncc(OC(=O)N2CCC3(CCN(Cc4cc(Cl)ccc4C(F)(F)F)C3)CC2)c1 [Example 4] , and I need its recorded pIC50.
Output line: > 7.00

Input line: I have this compound here, O=C(Oc1cncc(C(F)(F)F)c1)N1CCC2(CC1)CN(Cc1cccc(Oc3ccccc3Cl)c1)C2 [Example 9] , and I need its recorded pIC50.
Output line: 6.00 to 7.00

Input line: I have this compound here, O=C(Oc1cncc(C(F)(F)F)c1)N1CCC2(CC1)CN(Cc1cc(Cl)cc(Oc3nc4ccccc4s3)c1)C2 [Example 23] , and I need its recorded pIC50.
Output line: > 7.00

Input line: I have this compound here, O=C(Oc1cncc(C(F)(F)F)c1)N1CCC2(CC1)CN(Cc1cccc(Oc3cncnc3)c1)C2 [Example 11] , and I need its recorded pIC50.
Output line: 6.00 to 7.00

Input line: I have this compound here, NC(=O)c1cncc(OC(=O)N2CCC3(CCN(Cc4cc(Cl)cc(C(F)(F)F)c4)C3)CC2)c1 [Example 3] , and I need its recorded pIC50.
Output line: > 7.00

Input line: I have this compound here, O=C(Oc1cncc(C(F)(F)F)c1)N1CCC2(CC1)CN(Cc1ccc(Oc3ccc(Cl)cc3)cc1)C2 [Example 30] , and I need its recorded pIC50.
Output line: 6.00 to 7.00

Input line: I have this compound here, Cc1c(CN2CCN(C(=O)Oc3cncc(C(N)=O)c3)[C@H](C)C2)cccc1C(F)(F)F [Example 58] , and I need its recorded pIC50.
Output line: 6.00 to 7.00

Input line: I have this compound here, O=C(Oc1cncc(C(F)(F)F)c1)N1CCC2(CC1)CC(Oc1cccc(C(F)(F)F)c1)C2 [Example 1] , and I need its recorded pIC50.
Output line: > 7.00

Input line: I have this compound here, O=C(Oc1cncc(C(F)(F)F)c1)N1CCC2(CC1)CN(Cc1ccc(Oc3cccc(Cl)c3)cc1)C2 [Example 2] , and I need its recorded pIC50.
Output line: 6.00 to 7.00

Input line: I have this compound here, NC(=O)c1cncc(OC(=O)N2CCC3(CC2)CN(Cc2cccc(Oc4ccc(Cl)cc4)c2)C3)c1 [Example 5] , and I need its recorded pIC50.
Output line: > 7.00
